# testTarget: Sodium-dependent serotonin transporter (Homo sapiens); also: assay procedure not described here
# Sequence (P31645 whole entry): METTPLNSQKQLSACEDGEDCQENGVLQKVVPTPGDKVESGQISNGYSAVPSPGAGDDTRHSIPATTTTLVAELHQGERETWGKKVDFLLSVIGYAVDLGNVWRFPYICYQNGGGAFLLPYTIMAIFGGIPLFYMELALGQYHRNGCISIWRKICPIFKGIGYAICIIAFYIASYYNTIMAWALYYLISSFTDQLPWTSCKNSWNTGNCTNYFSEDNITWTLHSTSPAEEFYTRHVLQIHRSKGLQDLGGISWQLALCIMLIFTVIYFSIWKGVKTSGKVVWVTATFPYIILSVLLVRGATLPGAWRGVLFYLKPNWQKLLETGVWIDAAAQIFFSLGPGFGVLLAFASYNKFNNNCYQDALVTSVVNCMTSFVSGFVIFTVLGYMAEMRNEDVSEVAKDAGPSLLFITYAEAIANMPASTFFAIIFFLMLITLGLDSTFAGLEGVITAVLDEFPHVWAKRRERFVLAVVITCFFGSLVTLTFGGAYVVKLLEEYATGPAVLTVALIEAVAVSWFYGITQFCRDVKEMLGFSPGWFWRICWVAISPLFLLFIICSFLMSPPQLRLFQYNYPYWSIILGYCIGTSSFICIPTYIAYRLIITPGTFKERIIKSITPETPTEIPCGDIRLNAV
Attribute: AC50

Known results for compounds:
Prompt: AC50 of CCCCCOC(=O)Nc1nc(=O)n([C@@H]2O[C@H](C)[C@@H](O)[C@H]2O)cc1F on Sodium-dependent serotonin transporter (Homo sapiens)?
Completion: > 30 µM

Prompt: AC50 of CN1C(=O)CC(c2ccccc2)C1=O (configuration not stated) [PHENSUXIMIDE] on Sodium-dependent serotonin transporter (Homo sapiens)?
Completion: > 10 µM

Prompt: AC50 of CN(C)C(=O)OC1N=C(c2ccccc2)c2cc(Cl)ccc2N(C)C1=O (configuration not stated) on Sodium-dependent serotonin transporter (Homo sapiens)?
Completion: > 10 µM

Prompt: AC50 of CCCCOc1cc(C(=O)NCCN(CC)CC)c2ccccc2n1 on Sodium-dependent serotonin transporter (Homo sapiens)?
Completion: > 10 µM

Prompt: AC50 of CCCCC(C)(O)C/C=C/[C@H]1[C@H](O)CC(=O)[C@@H]1CCCCCCC(=O)OC (some centres not stated) on Sodium-dependent serotonin transporter (Homo sapiens)?
Completion: > 30 µM

More entries:
Prompt: AC50 of O=C(CCCCCCC(=O)Nc1ccccc1)NO on Sodium-dependent serotonin transporter (Homo sapiens)?
Completion: > 30 µM

Prompt: AC50 of CC(=O)OCC(=O)[C@@]12OC3(CCCC3)O[C@@H]1C[C@H]1[C@@H]3CCC4=CC(=O)C=C[C@]4(C)[C@@]3(F)[C@@H](O)C[C@@]12C [AMCINONIDE] on Sodium-dependent serotonin transporter (Homo sapiens)?
Completion: > 10 µM
